assay: Pharmacokinetic experiments in male SD rats; type: in vivo, rat; details: male, SD, rat, plasma, intravenous, 2 mg/kg
readout.name: AUC(0-inf) (ng·h/mL)

molecule="O=C(c1ccc(F)cn1)N1CCC2(CC(O)c3cc(-c4ccccc4C4CC4)ccc32)C1 (stereo not shown) [Example 15]" recorded_result=10500

* * *

test: Liver microsome metabolism stability test (rat); format: in vitro ADME; conditions: rat liver microsomes, 1 μM compound; read-out: in vitro T1/2
readout.name: half-life at 1 μM (min)

compound="O=C(c1ccc(F)cn1)N1CCC2(CC(O)c3cc(-c4ccccc4C4CC4)ccc32)C1 (stereo not shown) [Example 15]" recorded_result=25.8

* * *

Molecular target: hTRPV3 (Homo sapiens, UniProt Q8NET8)
Construct: expressed in transfected cells; host or cells: HEK-293
Sequence (Q8NET8 1-790): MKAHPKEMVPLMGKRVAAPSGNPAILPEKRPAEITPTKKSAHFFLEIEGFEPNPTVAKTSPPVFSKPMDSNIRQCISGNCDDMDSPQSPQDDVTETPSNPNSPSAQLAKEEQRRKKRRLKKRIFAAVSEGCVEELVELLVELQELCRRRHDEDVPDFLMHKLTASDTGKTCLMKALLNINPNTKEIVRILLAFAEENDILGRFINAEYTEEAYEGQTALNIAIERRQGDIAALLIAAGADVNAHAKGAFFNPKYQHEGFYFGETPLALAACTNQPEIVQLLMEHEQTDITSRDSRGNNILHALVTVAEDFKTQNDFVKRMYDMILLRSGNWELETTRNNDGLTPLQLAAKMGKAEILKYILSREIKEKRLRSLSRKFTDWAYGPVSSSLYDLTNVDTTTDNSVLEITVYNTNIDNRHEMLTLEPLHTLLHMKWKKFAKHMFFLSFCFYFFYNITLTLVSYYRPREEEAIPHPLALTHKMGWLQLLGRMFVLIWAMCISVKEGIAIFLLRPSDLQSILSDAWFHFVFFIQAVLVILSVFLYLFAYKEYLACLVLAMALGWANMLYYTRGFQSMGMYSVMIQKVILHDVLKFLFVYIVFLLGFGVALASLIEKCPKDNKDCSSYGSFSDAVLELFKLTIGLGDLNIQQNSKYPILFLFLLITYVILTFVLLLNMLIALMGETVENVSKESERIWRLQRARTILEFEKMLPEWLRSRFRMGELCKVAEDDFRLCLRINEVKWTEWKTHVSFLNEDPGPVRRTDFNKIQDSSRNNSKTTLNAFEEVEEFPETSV
Assay: Whole cell patch clamp inhibition rate test on HEK-293 cells instantaneously expressing TRPV3
Assay type: cell-based
Conditions: HEK293; hTRPV3, single concentration 0.3 μM
readout.name: inhibition at 0.3 µM

compound="O=C(c1ccc(F)cn1)N1CC[C@@]2(C[C@@H](O)c3cc(-c4ccccc4C4CC4)ccc32)C1 [Example 21]" recorded_result="70 to 100%"
compound="COCc1cccc(C(=O)N2CCC3(CC(O)c4cc(-c5ccccc5C5CC5)ccc43)C2)n1 (centres unmarked) [Example 47]" recorded_result="< 25%"
compound="CC(C)c1ccccc1[S+]([O-])c1ccc2c(c1)C(O)CC21CCN(C(=O)c2ccc(F)cn2)C1 (centres unmarked) [Example 107]" recorded_result="< 25%"
compound="O=C(c1ccc(F)cn1)N1CC[C@]2(C[C@H](O)c3cc(-c4ccccc4C4CC4)ccc32)C1 [Example 23]" recorded_result="< 25%"
compound="CC(C)c1ccccc1-c1ccc2c(c1)C(O)CC21CCN(Cc2ccc(F)cn2)C1 (centres unmarked) [Example 134]" recorded_result="< 25%"
compound="O=C(c1ccc(Cl)cn1)N1CCC2(C1)OB(O)c1cc(-c3ccccc3C3CC3)ccc12 (centres unmarked) [Example 10]" recorded_result="25 to 50%"
compound="O=C(c1ccc(Cl)cn1)N1CCC2(CCC(O)c3cc(-c4ccccc4C4CC4)ccc32)C1 (centres unmarked) [Example 2]" recorded_result="< 25%"
compound="CC(C)c1ccccc1-c1ccc2c(c1)C(O)CC21CCN(C(=O)c2ccc(F)cc2)C1 (centres unmarked) [Example 61]" recorded_result="70 to 100%"
